# Read-out: Bcl-2 (BAX) gene, BAX (gene 581)
# Protocol Description: LTEA_HepaRG_BAX: Life Technologies and Expression Analysis (LTEA) Assay for Bcl-2 (BAX) gene using HepaRG (AID 2283470)
# Setup Conditions: mRNA level, 48 h; actives raise or lower the signal
# Method: LTEA_HepaRG is a cell based, multiplexed-readout assay that uses HepaRG, a human liver cell line, with measurements taken at 48 hours after chemical dosing on a 96-well plate.LTEA_HepaRG_BAX is one of 102 assay component(s) measured in the LTEA HepaRG cell culture assay. It is a marker of Cell proliferation, survival, death.Data from the assay component LTEA_HepaRG_BAX was analyzed into 1 endpoint. […]
Activity calls are given as the source filed them. Rule for the calls: active = hit-call score of the fitted dose curve at least 0.9, where 1 is the maximum; inactive = score below 0.9.
Pick one: true (1) = active, false (0) = inactive

Qu. // param item: "CN1CCN(Cc2cc(-c3ccc4[nH]c(=O)oc4c3)co2)[C@@H](c2ccc(F)cc2)C1" ; yields the recorded call
Ans. false (0)

Qu. Assay outcome for "O=C(OCCCCCOC(=O)c1ccccc1)c1ccccc1" : what was it?
Ans. true (1)

Qu. Entry "Cc1ccc(C)c(O)c1C" : call = ?
Ans. false (0)

Qu. Hey, what did the test say about "CC1(C)NC(=O)NC1=O" ?
Ans. false (0)

Qu. Outcome logged for "O=[N+]([O-])C(CO)(CO)CO" in this assay:
Ans. false (0)

Qu. Hello, I am checking results. What call was entered for "CCOC(=O)CCC(=O)OCC" ?
Ans. false (0)

Qu. # lookup: test call for Cc1nc(-c2ccc3c(c2)CCN(CCC2CCC(NC(=O)/C=C/c4ccc(F)cc4)CC2)CC3)no1 (stereo unspecified)
Ans. false (0)

Qu. Fill in: this test's call for "C[C@]12C=CC(=O)C=C1CC[C@@H]1[C@@H]2C(=O)C[C@@]2(C)[C@H]1CC[C@]2(O)C(=O)CO" is ___
Ans. false (0)

Qu. Dear all, I need the recorded test outcome for "Cc1nc(C)nc(N2C[C@@H](C)N(c3ccnc([C@@H](C)O)n3)[C@@H](C)C2)n1" , thank you.
Ans. false (0)

Qu. For this compound, state the assay outcome: "Cc1cc(NC(=O)C(=O)O)cc(C)c1Oc1ccc(O)c2c1CCC2"
Ans. false (0)

Qu. # fetch the recorded call for "Nc1ccc(S(=O)(=O)c2ccc(N)cc2)cc1" here
Ans. false (0)

Qu. Record request — test call for "CCCCc1ccc2c(n1)[C@@H](c1ccc(OC)cc1C[C@H](C)C(=O)O)[C@H](C(=O)O)[C@H]2c1ccc2c(c1)OCO2"
Ans. false (0)

Qu. What call does the record list for "C1CCC(SSC2CCCCC2)CC1" ?
Ans. false (0)

Qu. Each compound tested received a call. Report the one for "Cc1ccc(C(C)C)c(O)c1" .
Ans. false (0)

Qu. Hello, I am checking results. What call was entered for "CCCCN(CCCC)CCCC" ?
Ans. false (0)

Qu. Hi, do you know how "NCC1(Cc2noc(=O)[nH]2)CCCCC1" came out in this test?
Ans. false (0)

====

# Protocol Description: LTEA_HepaRG_LDH_cytotoxicity: Cytotoxicity Assessment in the Life Technologies and Expression Analysis (LTEA) Assay (AID 2283563)
# Procedure: LTEA_HepaRG is a cell based, multiplexed-readout assay that uses HepaRG, a human liver cell line, with measurements taken at 48 hours after chemical dosing on a 96-well plate.LTEA_HepaRG_LDH_cytotoxicity is one of 102 assay component(s) measured in the LTEA HepaRG cell culture assay. It is a marker of cell viability / cytotoxicity.Data from the assay component LTEA_HepaRG_LDH_cytotoxicity was analyzed into 1 endpoint. […]
The source made the active and inactive calls. How the source made its calls: active means hit-call score of the fitted dose curve at least 0.9, where 1 is the maximum; inconclusive means response in the unintended direction; inactive means score below 0.9.
Tick one outcome: YES for active, NO for inactive

Qu. Call for entry CC(=O)C(C)=CC1C(C)=CCCC1(C)C (centres undefined) :
Ans. NO

Qu. Which result was noted for this molecule in the test: "Cc1oc(-c2ccccc2)nc1CCOc1cccc2c1ccn2CCC(=O)O"
Ans. YES

Qu. Record request — test call for "CNC(=O)[C@H]1O[C@@H](n2cnc3c(NCc4cc(Cl)ccc4OCc4cc(C)no4)ncnc32)[C@H](O)[C@@H]1N"
Ans. NO

Qu. # lookup: test call for "COc1ccc(C)cc1N"
Ans. NO

Qu. Lab log entry: "CC1(C)NC(=O)NC1=O" — outcome as called in the assay?
Ans. NO

Qu. Lab log entry: CC1(C)CC(N=C=O)CC(C)(CN=C=O)C1 (centres undefined) — outcome as called in the assay?
Ans. NO

Qu. I'd appreciate the recorded outcome for COCCOC[C@H](CC1(C(=O)NC2CCC(C(=O)O)CC2)CCCC1)C(=O)Oc1ccc2c(c1)CCC2 (some centres undefined) from this test.
Ans. NO

Qu. Name the outcome recorded for "FC(F)(F)C(F)(F)C(F)(F)C(F)(F)C(F)(F)C(F)(F)CCI" in the assay.
Ans. NO

Qu. Record lookup: outcome of this test for "C[Si]1(C)O[Si](C)(C)O[Si](C)(C)O[Si](C)(C)O1" ?
Ans. NO

Qu. Kindly provide the recorded test outcome for the following molecule: "Oc1ccc2c(c1)OC[C@@H](N1CCC(O)(c3ccc(F)cc3)CC1)[C@H]2O"
Ans. NO

Qu. Assay result, entry "C[C@]12C=CC(=O)C=C1CC[C@@H]1[C@@H]2C(=O)C[C@@]2(C)[C@H]1CC[C@]2(O)C(=O)CO" — outcome?
Ans. NO

Qu. Dear all, I need the recorded test outcome for "COCCOCCOC" , thank you.
Ans. NO

Qu. How was "CCCCCCCCCCCC(=O)OC" classified in this test?
Ans. NO

Qu. Per the assay record, what outcome was assigned to "Cc1ccc(N(C)C)cc1" ?
Ans. NO

====

# Read-out: Nuclear factor NF-kappa-B p105 subunit (Homo sapiens) (UniProt P19838)
# Sequence (P19838 whole entry, looked up): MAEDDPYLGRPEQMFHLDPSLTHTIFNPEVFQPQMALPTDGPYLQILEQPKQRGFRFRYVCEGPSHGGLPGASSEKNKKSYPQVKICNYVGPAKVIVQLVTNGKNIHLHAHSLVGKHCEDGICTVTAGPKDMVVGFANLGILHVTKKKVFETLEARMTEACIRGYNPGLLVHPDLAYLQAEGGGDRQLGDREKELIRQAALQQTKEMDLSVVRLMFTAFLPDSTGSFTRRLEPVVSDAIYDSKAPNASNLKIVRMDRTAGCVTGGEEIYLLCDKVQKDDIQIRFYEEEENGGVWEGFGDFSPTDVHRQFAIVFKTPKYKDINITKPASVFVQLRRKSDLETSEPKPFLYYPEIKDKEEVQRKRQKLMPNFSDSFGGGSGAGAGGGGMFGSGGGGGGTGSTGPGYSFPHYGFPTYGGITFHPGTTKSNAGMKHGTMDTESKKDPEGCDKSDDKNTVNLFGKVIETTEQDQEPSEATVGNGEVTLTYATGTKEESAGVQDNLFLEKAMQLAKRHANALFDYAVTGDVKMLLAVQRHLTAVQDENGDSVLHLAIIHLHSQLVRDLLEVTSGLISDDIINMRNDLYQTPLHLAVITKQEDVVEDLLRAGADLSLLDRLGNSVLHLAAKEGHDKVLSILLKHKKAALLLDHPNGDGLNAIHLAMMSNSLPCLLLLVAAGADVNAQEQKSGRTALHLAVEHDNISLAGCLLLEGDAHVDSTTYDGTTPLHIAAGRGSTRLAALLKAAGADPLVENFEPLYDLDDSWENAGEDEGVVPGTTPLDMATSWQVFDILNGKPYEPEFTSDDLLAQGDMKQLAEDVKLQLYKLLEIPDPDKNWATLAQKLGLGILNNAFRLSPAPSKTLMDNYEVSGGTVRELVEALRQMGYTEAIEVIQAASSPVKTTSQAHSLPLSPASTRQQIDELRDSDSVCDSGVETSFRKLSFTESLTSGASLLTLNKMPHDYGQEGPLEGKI
# Protocol Description: LTEA_HepaRG_NFKB1: Life Technologies and Expression Analysis (LTEA) Assay for Nuclear Factor Kappa B Subunit 1 (NFKB1) using HepaRG (AID 2283521)
# Setup Conditions: mRNA level, 48 h; actives raise or lower the signal
The source made the active and inactive calls. Rule for the calls: active = hit-call score of the fitted dose curve at least 0.9, where 1 is the maximum; inactive = score below 0.9.
Form entry, call: pick from True = active, False = inactive

Qu. Hi, sorry to bother you, what did the test record for "O=C(N[C@@H](Cc1ccccc1)[C@@H](O)C(=O)N1C[C@@H](O)[C@@H](O)C1)c1cc2cc(Cl)ccc2[nH]1" ?
Ans. False

Qu. Test call, this molecule: "O=[N+]([O-])C(CO)(CO)CO"
Ans. False

Qu. Tell me the recorded outcome of this test for "Nc1ccccc1N" .
Ans. False

Qu. Lab log entry: "Cc1ccc(C)c(C)c1" — outcome as called in the assay?
Ans. False

Qu. Could you kindly confirm the outcome this assay logged for "C[C@]12C=CC(=O)C=C1CC[C@@H]1[C@@H]2C(=O)C[C@@]2(C)[C@H]1CC[C@]2(O)C(=O)CO" ?
Ans. False

Qu. Check the results log: what was the call for "CCCCCCCC=O" ?
Ans. False

Qu. Please share the test call associated with "COc1ccc(C)cc1N" .
Ans. False

Qu. Can you look up the reported call for "CNCc1cc(F)ccc1Oc1ccc(Cl)c(Cl)c1" for me?
Ans. True

Qu. Which outcome was assigned to "CC1=C(/C=C/C(C)=C/C=C/C(C)=C/CO)C(C)(C)CCC1" in this test?
Ans. False

Qu. Just curious, what result did CCCCC(CC)COC(=O)CC(C(=O)OCC(CC)CCCC)S(=O)(=O)O (configuration not stated) get here?
Ans. False

Qu. Hi team, can someone confirm the assay call for CC1(C)CC(N=C=O)CC(C)(CN=C=O)C1 (configuration not stated) ?
Ans. False

Qu. GET /call?item= "CNC(=O)[C@H]1O[C@@H](n2cnc3c(NCc4cc(Cl)ccc4OCc4cc(C)no4)ncnc32)[C@H](O)[C@@H]1N" returns the recorded outcome of this test.
Ans. False

====

# Protocol Description: ATG_DR4_LXR_CIS: Attagene CIS-FACTORIAL HepG2 Assay for human Liver X Receptor (LXR), DR4 submotif (AID 2282929)
# Setup Conditions: HepG2 Attagene DR4 cis-reporter, mRNA transcription; actives raise or lower the signal
Activity calls are given as the source filed them. Rule for the calls: active = hit-call score of the fitted dose curve at least 0.9, where 1 is the maximum; inactive = score below 0.9.
Respond using exactly one of the listed classes: 1.0 = active, 0.0 = inactive

Qu. # outcome recorded in this test, key = "CCCCCCCC=O"
Ans. 0.0

Qu. # fetch the recorded call for "c1cc(-c2ccncc2)ccn1" here
Ans. 0.0

Qu. Dear all, I need the recorded test outcome for "O=C(O)CCCCC(=O)O" , thank you.
Ans. 0.0

Qu. Assay result, entry "CN[C@H]1CC[C@@H](c2ccc(Cl)c(Cl)c2)c2ccc(S(N)(=O)=O)cc21" — outcome?
Ans. 0.0

Qu. Field: outcome | Entry: "CCCCCCOCCO"
Ans. 0.0

Qu. Status in this test for "Nc1ccc2c(c1)C(=O)c1ccccc1C2=O" ?
Ans. 0.0

Qu. How was "CC1=C(/C=C/C(C)=C/C=C/C(C)=C/CO)C(C)(C)CCC1" classified in this test?
Ans. 1.0

Qu. Call for entry "Cc1cccc(C)c1O" :
Ans. 0.0

Qu. Which outcome was entered for the compound "CCCCOC(=O)CCCCCCCCC(=O)OCCCC" in this test?
Ans. 1.0

Qu. State the result this test recorded for "O=C(N[C@@H](Cc1ccccc1)[C@@H](O)C(=O)N1C[C@@H](O)[C@@H](O)C1)c1cc2cc(Cl)ccc2[nH]1" .
Ans. 1.0

Qu. Just curious, what result did "CCOC(=O)CCC(=O)OCC" get here?
Ans. 0.0

Qu. Lab log entry: "Cc1ccc(C)c(O)c1C" — outcome as called in the assay?
Ans. 0.0

Hello, the source for this data is PubChem BioAssay (EPA / NIEHS), in case you need it.
